// data source = ChEMBL document CHEMBL4619808

# System: Candida albicans
# assayName: Microbicidal activity against Candida albicans ATCC 10231 assessed as inhibition of colony growth incubated for 48 hrs followed by replating and further incubated for 48 hrs
# Assay type: functional
# appliedConditions: ATCC 10231, 48 h
measuredMetric: MBC (µM)

structureassmiles=CC(=O)N[C@@H](CCCCN)c1nc(C)sc1C(=O)N[C@@H](C)c1nc(CCCCN)sc1C(=O)N[C@@H](C)c1nc(C)sc1C(=O)N[C@@H](CCCCN)c1nc(C)sc1C(=O)N[C@@H](C)c1nc(CCCCN)sc1C(=O)N[C@@H](C)c1nc(C)sc1C(=O)N[C@@H](CCCCN)c1nc(C)sc1C(=O)N[C@@H](C)c1nc(CCCCN)sc1C(=O)N[C@@H](C)c1nc(C)sc1C(=O)N[C@@H](CCCCN)c1nc(C)sc1C(=O)N[C@@H](C)c1nc(CCCCN)sc1C(=O)N[C@@H](C)c1nc(C)sc1C(N)=O endpointunit=µM relationsign== assayvalue=3.7
structureassmiles=CC(=O)N[C@@H](CCCNC(=N)N)c1nc(C)sc1C(=O)N[C@@H](C)c1nc(CCCNC(=N)N)sc1C(=O)N[C@@H](C)c1nc(C)sc1C(=O)N[C@@H](CCCNC(=N)N)c1nc(C)sc1C(=O)N[C@@H](C)c1nc(CCCNC(=N)N)sc1C(=O)N[C@@H](C)c1nc(C)sc1C(=O)N[C@@H](CCCNC(=N)N)c1nc(C)sc1C(=O)N[C@@H](C)c1nc(CCCNC(=N)N)sc1C(=O)N[C@@H](C)c1nc(C)sc1C(N)=O endpointunit=µM relationsign== assayvalue=12.5
structureassmiles=CC(=O)N[C@@H](CCCCN)c1nc(C)sc1C(=O)N[C@@H](C)c1nc(CCCCN)sc1C(=O)N[C@@H](C)c1nc(C)sc1C(=O)N[C@@H](CCCCN)c1nc(C)sc1C(=O)N[C@@H](C)c1nc(CCCCN)sc1C(=O)N[C@@H](C)c1nc(C)sc1C(=O)N[C@@H](CCCCN)c1nc(C)sc1C(=O)N[C@@H](C)c1nc(CCCCN)sc1C(=O)N[C@@H](C)c1nc(C)sc1C(N)=O endpointunit=µM relationsign== assayvalue=10.4
structureassmiles=CC(=O)N[C@@H](CCCNC(=N)N)c1nc(C)sc1C(=O)N[C@@H](C)c1nc(C)sc1C(=O)N[C@@H](C)c1nc(C)sc1C(=O)N[C@@H](CCCNC(=N)N)c1nc(C)sc1C(=O)N[C@@H](C)c1nc(C)sc1C(=O)N[C@@H](C)c1nc(C)sc1C(=O)N[C@@H](CCCNC(=N)N)c1nc(C)sc1C(=O)N[C@@H](C)c1nc(C)sc1C(=O)N[C@@H](C)c1nc(C)sc1C(=O)N[C@@H](CCCNC(=N)N)c1nc(C)sc1C(=O)N[C@@H](C)c1nc(C)sc1C(=O)N[C@@H](C)c1nc(C)sc1C(N)=O endpointunit=µM relationsign== assayvalue=50
structureassmiles=CC(=O)N[C@@H](CCCCN)c1nc(C)sc1C(=O)N[C@@H](C)c1nc(CCCCN)sc1C(=O)N[C@@H](C)c1nc(C)sc1C(N)=O endpointunit=µM relationsign=> assayvalue=150
structureassmiles=CC(=O)N[C@@H](CCCCN)c1nc(C)sc1C(=O)N[C@@H](C)c1nc(CCCCN)sc1C(=O)N[C@@H](C)c1nc(C)sc1C(=O)N[C@@H](CCCCN)c1nc(C)sc1C(=O)N[C@@H](C)c1nc(CCCCN)sc1C(=O)N[C@@H](C)c1nc(C)sc1C(N)=O endpointunit=µM relationsign== assayvalue=130
structureassmiles=CC(=O)N[C@@H](CCCNC(=N)N)c1nc(C)sc1C(=O)N[C@@H](C)c1nc(CCCNC(=N)N)sc1C(=O)N[C@@H](C)c1nc(C)sc1C(=O)N[C@@H](CCCNC(=N)N)c1nc(C)sc1C(=O)N[C@@H](C)c1nc(CCCNC(=N)N)sc1C(=O)N[C@@H](C)c1nc(C)sc1C(=O)N[C@@H](CCCNC(=N)N)c1nc(C)sc1C(=O)N[C@@H](C)c1nc(CCCNC(=N)N)sc1C(=O)N[C@@H](C)c1nc(C)sc1C(=O)N[C@@H](CCCNC(=N)N)c1nc(C)sc1C(=O)N[C@@H](C)c1nc(CCCNC(=N)N)sc1C(=O)N[C@@H](C)c1nc(C)sc1C(N)=O endpointunit=µM relationsign== assayvalue=6.2
